Target: AChE (E.C. 3.1.1.7) (Electrophorus electricus, UniProt O42275)
Construct: purchased Sigma-Aldrich (St. Louis, MO, USA)
Sequence (O42275 24-633): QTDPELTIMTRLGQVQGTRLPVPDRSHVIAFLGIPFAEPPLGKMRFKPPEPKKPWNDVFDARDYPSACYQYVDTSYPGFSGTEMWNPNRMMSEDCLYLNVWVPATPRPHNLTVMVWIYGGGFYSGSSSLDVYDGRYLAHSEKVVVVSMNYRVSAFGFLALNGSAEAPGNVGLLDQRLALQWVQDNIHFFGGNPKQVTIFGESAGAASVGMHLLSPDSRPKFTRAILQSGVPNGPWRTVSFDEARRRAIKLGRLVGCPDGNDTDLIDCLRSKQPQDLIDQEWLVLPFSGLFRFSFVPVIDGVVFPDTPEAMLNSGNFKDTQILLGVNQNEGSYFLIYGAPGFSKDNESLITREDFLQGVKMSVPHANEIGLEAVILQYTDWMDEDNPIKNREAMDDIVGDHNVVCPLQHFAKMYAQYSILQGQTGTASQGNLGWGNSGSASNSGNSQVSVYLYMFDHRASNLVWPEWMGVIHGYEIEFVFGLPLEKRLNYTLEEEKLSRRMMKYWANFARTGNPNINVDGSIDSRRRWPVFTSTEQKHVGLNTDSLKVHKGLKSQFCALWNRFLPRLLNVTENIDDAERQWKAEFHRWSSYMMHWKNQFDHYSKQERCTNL
Assay: biochemical
Conditions: Selectivity Index = IC50 (BuChE)/IC50 (AChE)
Protocol: The inhibitory activity of the synthesized graveoline analogs on cholinesterase in vitro was studied using the Ellman method. Stock solutions of all graveoline analogs (10 mM) were prepared using DMSO and stored at −80 °C. Further dilutions to working concentrations were made with double-distilled deionized water. […]
Item-by-item account of Selectivity Index

| Compound | Selectivity Index |
| --- | --- |
| CN(C)CCNCc1ccc(-c2cc(=O)c3ccccc3n2C)cc1 [Compound 4a] | 45 |
| Cc1ccc(-c2cc(=O)c3ccccc3n2C)cc1 [Compound 2, 1-Methyl-2-p-tolylquinolin-4(1H)-one] | 3 |
| Cn1c(-c2ccc(CNCCCN3CCCC3)cc2)cc(=O)c2ccccc21 [Compound 5b] | 291 |

----------
target: AChE (E.C. 3.1.1.7) (Electrophorus electricus); construct: purchased Sigma-Aldrich (St. Louis, MO, USA); assay: biochemical; conditions: Selectivity Index = IC50 (BuChE)/IC50 (AChE)
Outcome Measure: Selectivity Index

| Compound Smiles | Measured On | Result |
| --- | --- | --- |
| CN(C)CCCCNCc1ccc(-c2cc(=O)c3ccccc3n2C)cc1 | AChE (E.C. 3.1.1.7) (Electrophorus electricus) | 103 |
| CN(C)CCCNCc1ccc(-c2cc(=O)c3ccccc3n2C)cc1 | AChE (E.C. 3.1.1.7) (Electrophorus electricus) | 80 |
| Cn1c(-c2ccc(CNCCN3CCCCC3)cc2)cc(=O)c2ccccc21 | AChE (E.C. 3.1.1.7) (Electrophorus electricus) | 160 |
| Cn1c(-c2ccc(CNCCCCN3CCCC3)cc2)cc(=O)c2ccccc21 | AChE (E.C. 3.1.1.7) (Electrophorus electricus) | 193 |
| Cn1c(-c2ccc(CNCCCN3CCCCC3)cc2)cc(=O)c2ccccc21 | AChE (E.C. 3.1.1.7) (Electrophorus electricus) | 486 |

----------
molecular target: AChE (E.C. 3.1.1.7) (Electrophorus electricus, UniProt O42275); construct: purchased Sigma-Aldrich (St. Louis, MO, USA); assay: biochemical; details: means ± SEM of three experiments; pH 8.0, 37 °C, 15 min incubation; read-out: AChE Inhibition (IC50)
// thresholds for IC50 classes: low: < 10 nM; intermediate: ≥ 10 nM and < 40 nM; high: ≥ 40 nM

| Compound | Measured On | Cat |
| --- | --- | --- |
| Cn1c(-c2ccc(CNCCCN3CCCC3)cc2)cc(=O)c2ccccc21 [Compound 5b] | AChE (E.C. 3.1.1.7) (Electrophorus electricus, UniProt O42275) | low |
| Cn1c(-c2ccc(CNCCCN3CCCCC3)cc2)cc(=O)c2ccccc21 [Compound 5c] | AChE (E.C. 3.1.1.7) (Electrophorus electricus, UniProt O42275) | low |
| Cn1c(-c2ccc(CNCCCCN3CCCC3)cc2)cc(=O)c2ccccc21 [Compound 6b] | AChE (E.C. 3.1.1.7) (Electrophorus electricus, UniProt O42275) | intermediate |
| CN(C)CCCNCc1ccc(-c2cc(=O)c3ccccc3n2C)cc1 [Compound 5a] | AChE (E.C. 3.1.1.7) (Electrophorus electricus, UniProt O42275) | intermediate |
| CN(C)CCCCNCc1ccc(-c2cc(=O)c3ccccc3n2C)cc1 [Compound 6a] | AChE (E.C. 3.1.1.7) (Electrophorus electricus, UniProt O42275) | intermediate |
| CN(C)CCNCc1ccc(-c2cc(=O)c3ccccc3n2C)cc1 [Compound 4a] | AChE (E.C. 3.1.1.7) (Electrophorus electricus, UniProt O42275) | high |
| Cn1c(-c2ccc(CNCCN3CCCCC3)cc2)cc(=O)c2ccccc21 [Compound 4c] | AChE (E.C. 3.1.1.7) (Electrophorus electricus, UniProt O42275) | low |
| Cc1ccc(-c2cc(=O)c3ccccc3n2C)cc1 [Compound 2, 1-Methyl-2-p-tolylquinolin-4(1H)-one] | AChE (E.C. 3.1.1.7) (Electrophorus electricus, UniProt O42275) | high |
